Data provenance: ChEMBL document CHEMBL3727374

# system: Huntingtin (Homo sapiens)
# Sequence (P42858 whole entry, looked up, stated change not applied, the tested form may be a part): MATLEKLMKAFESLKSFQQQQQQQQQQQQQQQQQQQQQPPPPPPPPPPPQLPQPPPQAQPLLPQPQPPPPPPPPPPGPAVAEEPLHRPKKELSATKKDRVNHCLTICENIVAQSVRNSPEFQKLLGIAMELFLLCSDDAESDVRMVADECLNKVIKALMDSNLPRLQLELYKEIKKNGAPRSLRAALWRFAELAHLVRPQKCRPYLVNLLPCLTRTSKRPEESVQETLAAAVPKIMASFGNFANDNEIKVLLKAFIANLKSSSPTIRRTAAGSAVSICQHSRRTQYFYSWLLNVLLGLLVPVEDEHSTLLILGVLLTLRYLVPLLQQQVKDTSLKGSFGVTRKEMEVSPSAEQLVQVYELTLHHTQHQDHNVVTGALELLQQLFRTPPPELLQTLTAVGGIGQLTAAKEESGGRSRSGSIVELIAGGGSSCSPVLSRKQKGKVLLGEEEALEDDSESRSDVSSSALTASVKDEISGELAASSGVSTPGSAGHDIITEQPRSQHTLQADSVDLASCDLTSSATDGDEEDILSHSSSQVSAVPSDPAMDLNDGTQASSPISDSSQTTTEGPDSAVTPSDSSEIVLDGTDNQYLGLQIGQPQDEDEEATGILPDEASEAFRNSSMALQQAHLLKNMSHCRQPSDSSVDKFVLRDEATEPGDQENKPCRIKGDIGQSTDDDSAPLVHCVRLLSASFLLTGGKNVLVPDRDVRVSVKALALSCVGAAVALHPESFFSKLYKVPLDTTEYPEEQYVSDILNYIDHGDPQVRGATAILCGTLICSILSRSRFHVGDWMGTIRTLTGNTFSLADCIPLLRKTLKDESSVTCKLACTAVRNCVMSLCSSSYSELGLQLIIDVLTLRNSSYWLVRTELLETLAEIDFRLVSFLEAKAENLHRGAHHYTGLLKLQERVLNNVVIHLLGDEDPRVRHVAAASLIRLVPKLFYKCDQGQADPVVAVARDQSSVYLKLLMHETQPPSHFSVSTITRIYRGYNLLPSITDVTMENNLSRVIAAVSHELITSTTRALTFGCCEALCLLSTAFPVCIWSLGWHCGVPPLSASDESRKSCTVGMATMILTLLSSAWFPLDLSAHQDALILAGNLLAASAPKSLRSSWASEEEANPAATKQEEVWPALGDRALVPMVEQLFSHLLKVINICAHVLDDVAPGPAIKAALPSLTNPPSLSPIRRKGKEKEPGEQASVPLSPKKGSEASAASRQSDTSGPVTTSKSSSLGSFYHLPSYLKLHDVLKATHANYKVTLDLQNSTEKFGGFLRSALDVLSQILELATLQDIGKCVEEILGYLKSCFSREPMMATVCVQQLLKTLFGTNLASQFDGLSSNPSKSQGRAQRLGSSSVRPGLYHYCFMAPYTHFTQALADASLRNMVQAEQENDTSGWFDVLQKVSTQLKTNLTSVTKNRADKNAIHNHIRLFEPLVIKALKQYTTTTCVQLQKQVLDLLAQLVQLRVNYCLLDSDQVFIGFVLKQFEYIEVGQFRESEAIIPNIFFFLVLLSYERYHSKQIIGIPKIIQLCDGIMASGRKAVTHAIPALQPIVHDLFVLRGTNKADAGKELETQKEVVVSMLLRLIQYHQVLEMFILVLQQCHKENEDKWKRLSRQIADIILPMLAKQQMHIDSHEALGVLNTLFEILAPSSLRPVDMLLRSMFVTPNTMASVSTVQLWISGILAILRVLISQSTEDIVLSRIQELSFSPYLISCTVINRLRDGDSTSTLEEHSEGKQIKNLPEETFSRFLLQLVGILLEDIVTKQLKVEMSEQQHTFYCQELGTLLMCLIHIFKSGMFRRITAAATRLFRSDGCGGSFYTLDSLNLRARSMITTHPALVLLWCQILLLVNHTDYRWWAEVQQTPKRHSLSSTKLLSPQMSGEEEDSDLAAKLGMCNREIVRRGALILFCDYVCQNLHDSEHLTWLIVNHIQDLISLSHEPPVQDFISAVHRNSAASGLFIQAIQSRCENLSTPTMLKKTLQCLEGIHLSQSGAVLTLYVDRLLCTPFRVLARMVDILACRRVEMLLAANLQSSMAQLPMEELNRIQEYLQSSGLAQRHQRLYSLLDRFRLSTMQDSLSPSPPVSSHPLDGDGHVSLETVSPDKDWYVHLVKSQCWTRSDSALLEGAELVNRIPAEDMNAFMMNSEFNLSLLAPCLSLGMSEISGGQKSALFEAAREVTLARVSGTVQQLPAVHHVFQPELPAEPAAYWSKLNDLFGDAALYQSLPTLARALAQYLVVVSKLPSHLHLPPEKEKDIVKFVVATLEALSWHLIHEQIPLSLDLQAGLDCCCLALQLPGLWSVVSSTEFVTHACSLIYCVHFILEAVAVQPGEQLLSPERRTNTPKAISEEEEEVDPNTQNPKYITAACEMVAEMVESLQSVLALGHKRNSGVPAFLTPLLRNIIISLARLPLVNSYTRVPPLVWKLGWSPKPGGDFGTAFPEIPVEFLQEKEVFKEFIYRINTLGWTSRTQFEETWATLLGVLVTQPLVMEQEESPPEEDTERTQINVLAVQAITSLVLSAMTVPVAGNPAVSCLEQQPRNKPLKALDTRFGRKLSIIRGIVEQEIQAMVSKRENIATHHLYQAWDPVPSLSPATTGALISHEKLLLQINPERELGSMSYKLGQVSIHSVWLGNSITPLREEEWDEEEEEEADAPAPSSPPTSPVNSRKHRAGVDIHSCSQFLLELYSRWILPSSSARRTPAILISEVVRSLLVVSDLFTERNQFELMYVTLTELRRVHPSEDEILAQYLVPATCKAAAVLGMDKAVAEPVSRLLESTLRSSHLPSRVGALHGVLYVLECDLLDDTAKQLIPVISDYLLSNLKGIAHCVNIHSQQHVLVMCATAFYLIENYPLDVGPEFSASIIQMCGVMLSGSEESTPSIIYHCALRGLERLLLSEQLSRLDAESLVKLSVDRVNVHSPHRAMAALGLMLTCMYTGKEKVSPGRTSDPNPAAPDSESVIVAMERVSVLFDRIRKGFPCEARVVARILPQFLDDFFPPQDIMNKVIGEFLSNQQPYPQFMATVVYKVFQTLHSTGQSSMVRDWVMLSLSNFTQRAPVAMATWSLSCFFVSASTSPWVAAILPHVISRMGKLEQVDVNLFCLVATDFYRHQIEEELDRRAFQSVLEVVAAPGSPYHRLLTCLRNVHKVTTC
# test.details: Inhibition of GFP-fused Huntingtin protein Q103/Q25 mutant (unknown origin) […] assessed as protection against huntingtin protein aggregation incubated for 48 hrs by multiplexed assay based HTT f3(agr) method
# Type: cell-based
# setup.conditions: pc-12
measure: AC50 (µM)

mol: Cn1nnnc1Sc1ncnc2scc(-c3ccc([N+](=O)[O-])cc3)c12
AC50 [µM]: 35.5
//
mol: Cn1nnnc1Sc1ncnc2scc(-c3ccc(C#N)cc3)c12
AC50 [µM]: 35.5
//
mol: CC(=O)c1ccc(-c2csc3ncnc(Sc4nnnn4C)c23)cc1
AC50 [µM]: 39.8
//
mol: Cn1nnnc1Sc1ncnc2scc(-c3ccccc3F)c12
AC50 [µM]: 35.5

1: Cn1nnnc1Sc1ncnc2scc(-c3ccsc3)c12
2: Cn1nnnc1Sc1ncnc2scc(-c3ccccc3[N+](=O)[O-])c12
Query: Compare 1 and 2 by numeric AC50 and name the larger one. Refer to your chosen entry by its label in the reply.
Reply: 1
(1: 35.5 µM, 2: 15.8 µM)
